Test system: LCC6-MDR1 PgP transfected breast carcinoma cell line
procedure-text: cells
measurement-setup: read-out: IC50 (±S.E.) LCC6-MDR; Experiment 1; TX-001/TX-002 from 4.0 mM stocks; 72-96 h
measure: IC50 (nM)

INSERT INTO assay_data (compound, unit_abbrev, experimental_result) VALUES
  ('CC(=O)O.CC(=O)OC1C(=O)C2(C)C(O)CC3OCC3(OC(C)=O)C2C(OC(=O)c2ccccc2)C2(O)CC(OC(=O)C(OC(=O)CCCC(=O)NCCOCCOCCN)C(NC(=O)c3ccccc3)c3ccccc3)C(C)=C1C2(C)C (stereo not shown)', 'nM', 1070);

###

Test system: LCC6-MDR1 PgP transfected breast carcinoma cell line
procedure-text: cells
measurement-setup: read-out: IC50 (±S.E.) LCC6-MDR; Experiment 2; TX-001/TX-002 from 0.4 mM stocks; 72-96 h
pIC50: −log10 of the molar value.
measure: pIC50

INSERT INTO assay_data (molecule, assay_system, measure, experimental_result) VALUES
  ('CC(=O)O.CC(=O)OC1C(=O)C2(C)C(O)CC3OCC3(OC(C)=O)C2C(OC(=O)c2ccccc2)C2(O)CC(OC(=O)C(OC(=O)CCCC(=O)NCCOCCOCCN)C(NC(=O)c3ccccc3)c3ccccc3)C(C)=C1C2(C)C (stereo not shown)', 'LCC6-MDR1 PgP transfected breast carcinoma cell line', 'pIC50', 5.75);

###

Test system: LCC6-MDR1 PgP transfected breast carcinoma cell line
procedure-text: cells
measurement-setup: read-out: IC50 (±S.E.) LCC6-MDR; 4.0 mM stock solutions that had been stored at 4° C. for 7 days
measure: IC50 (nM)

INSERT INTO assay_data (molecule, experimental_result) VALUES
  ('CC(=O)O.CC(=O)OC1C(=O)C2(C)C(O)CC3OCC3(OC(C)=O)C2C(OC(=O)c2ccccc2)C2(O)CC(OC(=O)C(OC(=O)CCCC(=O)NCCOCCOCCN)C(NC(=O)c3ccccc3)c3ccccc3)C(C)=C1C2(C)C (stereo not shown)', 879);
